# EXPERIMENTAL_SYSTEM: UDP-3-O-acyl-N-acetylglucosamine deacetylase (Pseudomonas aeruginosa (strain ATCC 15692 / PAO1 / 1C / PRS 101 / LMG12228), UniProt P47205)
# Sequence (P47205 whole entry): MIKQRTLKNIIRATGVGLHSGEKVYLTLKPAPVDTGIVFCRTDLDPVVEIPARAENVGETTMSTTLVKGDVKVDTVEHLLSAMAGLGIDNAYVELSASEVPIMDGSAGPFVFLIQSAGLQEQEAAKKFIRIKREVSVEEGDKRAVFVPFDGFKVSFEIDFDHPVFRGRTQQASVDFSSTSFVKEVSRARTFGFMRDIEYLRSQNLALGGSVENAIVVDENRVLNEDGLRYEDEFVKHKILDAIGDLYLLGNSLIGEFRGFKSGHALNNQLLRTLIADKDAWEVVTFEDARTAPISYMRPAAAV
# ASSAY_EXPLANATION: Displacement of (S)-N-(2-(N-(3-biphenyl-4-ylcarboxamido-4-(hydroxyamino)-4-oxobutyl)sulfamoyl)ethyl)-3',6'-dihydroxy-3-oxo-3H-spiro[isobenzofuran-1,9'-xanthene]-5-carboxamide fluorescent probe from histidine tagged Pseudomonas aeruginosa LpxC (1-303) expressed in Escherichia coli BL21 (DE3) preincubated for 30 mins followed by addition of fluorscein probe measured after 2 hrs by fluorescence …
pIC50: −log10 of the molar value.
QUANTITY_NAME: pIC50

INSERT INTO results (compound, reading_qualifier, value_observed) VALUES
  ('N[C@H](CC(=O)O)C(=O)Nc1cccc(OC(F)(F)F)c1', '=', 5.24),
  ('CC(O)c1nccn1Cc1cc(-c2ccccc2)on1 (racemic)', '=', 6.90),
  ('CC(O)c1nccn1Cc1cc(C#Cc2ccccc2)on1 (racemic)', '=', 7.69),
  ('Clc1ccc(CCCCn2ccnc2)cc1', '=', 4.36),
  ('NCC(=O)Nc1cccc(OC(F)(F)F)c1', '=', 4.26),
  ('Clc1ccc(OCCCn2ccnc2)cc1', '=', 3.93),
  ('CC(O)c1nccn1CCc1ccc(C#Cc2ccccc2)cc1 (racemic)', '=', 5.75),
  ('CS(=O)(=O)C[C@@H](N)C(=O)Nc1cccc(OC(F)(F)F)c1', '<', 4.00),
  ('CC(O)c1nccn1CCCc1ccc(-c2ccccc2)cc1 (racemic)', '=', 7.57),
  ('CC(O)c1nccn1Cc1ccc(Cl)cc1 (racemic)', '=', 4.40),
  ('OC(COc1ccccc1)Cn1ccnc1 (racemic)', '<', 2.70),
  ('CC(O)c1nccn1CCc1ccc(Cl)cc1 (racemic)', '=', 4.17),
  ('NC[C@@H](N)C(=O)Nc1cccc(OC(F)(F)F)c1', '=', 4.40),
  ('CC(O)c1nccn1CCCc1ccc(C#Cc2ccccc2)cc1 (racemic)', '=', 7.28),
  ('CS(=O)(=O)NC[C@@H](N)C(=O)Nc1cccc(OC(F)(F)F)c1', '=', 4.42),
  ('CC(O)c1nccn1CCc1ccc(-c2ccccc2)cc1 (racemic)', '=', 5.19),
  ('OC(COc1ccc(Cl)cc1)Cn1ccnc1 (racemic)', '=', 3.59);

* * *

# System: Pseudomonas aeruginosa
# ASSAY_EXPLANATION: Antibacterial activity against Pseudomonas aeruginosa 5567 in absence of human serum albumin by CLSI method
# Type: functional
QUANTITY_NAME: MIC (µg/mL)

INSERT INTO measurements (molecule, experimental_system, units, reading_qualifier, value_observed) VALUES
  ('C[C@H](O)c1nccn1Cc1cc(C#Cc2ccc(OC3CN(CCO)C3)cc2)on1', 'Pseudomonas aeruginosa', 'µg/mL', '=', 4),
  ('C[C@H](O)c1nccn1Cc1cc(C#Cc2ccc(OCCCNC3COC3)cc2)on1', 'Pseudomonas aeruginosa', 'µg/mL', '=', 8),
  ('C[C@H](O)c1nccn1Cc1cc(C#Cc2ccc(CCCO)cc2)on1', 'Pseudomonas aeruginosa', 'µg/mL', '=', 16),
  ('CC(O)c1nccn1Cc1cc(C#Cc2ccccc2)on1 (racemic)', 'Pseudomonas aeruginosa', 'µg/mL', '=', 64),
  ('C[C@@H](O)c1nccn1Cc1cc(C#Cc2ccc(CCCO)cc2)on1', 'Pseudomonas aeruginosa', 'µg/mL', '>', 128),
  ('C[C@H](O)c1nccn1Cc1cc(C#Cc2ccc(OCC(N)(CO)CO)cc2)on1', 'Pseudomonas aeruginosa', 'µg/mL', '=', 4),
  ('C[C@H](O)c1nccn1Cc1cc(C#Cc2ccc(OCCCNCCN)cc2)on1', 'Pseudomonas aeruginosa', 'µg/mL', '=', 4),
  ('CC(O)c1nccn1Cc1cc(C#Cc2ccc(CCCO)cc2)on1 (racemic)', 'Pseudomonas aeruginosa', 'µg/mL', '=', 32);
